Source of measurements: patent US20230295145A1

Listing: Normalized viability % DMSO of selected molecules
test system: NCI-H23; test: Cell Viability Assay (CellTiter-Glo); type: cell-based; details: 1 μM, 5 days
Write it as a number; the unit % DMSO goes unstated.

| MOLECULE | Normalized viability % DMSO [% DMSO] |
| --- | --- |
| CN1CC(CCNC(=O)[C@@H]2C[C@@H](O)CN2C(=O)[C@@H](n2cc(C3CC3)nn2)C(C)(C)C)CC1=O (stereo partly drawn) | 18.7 |

Record CC(C)(C)[C@@H](C(=O)N1C[C@H](O)C[C@H]1C(=O)NCC12CCCC(C1)C(=O)N2)n1cc(C2CC2)nn1 (stereo partly drawn) has NCI-H23 Normalized viability % DMSO equal to 18.9

Log: NCI-H23, molecule CC(C)(C)[C@@H](C(=O)N1C[C@H](O)C[C@H]1C(=O)NCC1CCS(=O)(=O)c2ccccc21)n1cc(C2CC2)nn1 (stereo partly drawn) , Normalized viability % DMSO = 10.8

----------
target: VHL (Homo sapiens, UniProt P40337); construct: expressed in transfected cells; assay: VHL HEK-293 BRET Assay (VHL NanoBRET Target Engagement Assay); assay type: cell-based; conditions: IC50 values measured in the presence of digitonin; HEK 293 RT VHL-NanoLuc stable cells; read-out: IC50 + Digi (μM)*
Sequence (P40337 whole entry): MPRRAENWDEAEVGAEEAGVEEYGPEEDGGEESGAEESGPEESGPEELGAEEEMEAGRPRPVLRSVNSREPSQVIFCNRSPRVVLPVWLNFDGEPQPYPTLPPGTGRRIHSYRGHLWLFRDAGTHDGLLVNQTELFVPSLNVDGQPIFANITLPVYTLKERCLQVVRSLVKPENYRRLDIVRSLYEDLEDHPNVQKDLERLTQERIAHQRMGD
PROPERTY: IC50
Be sure to follow the number with its unit.

Use the examples below as a reference point.
| COMPOUND | IC50 |
| --- | --- |
| CC(C)(C)[C@@H](C(=O)N1C[C@H](O)C[C@H]1C(=O)N[C@H]1CC[C@H](c2nc3ccccc3o2)CC1)n1cc(C2CC2)nn1 [Compound 106] | 4.41 µM |
| CC(C)(C)[C@@H](C(=O)N1C[C@H](O)C[C@H]1C(=O)N[C@@H]1C[C@@H](c2ccccc2)Oc2ccccc21)n1cc(C2CC2)nn1 [Compound 343] | 0.0321 µM |
| CC(C)(C)[C@@H](C(=O)N1C[C@H](O)C[C@H]1C(=O)NCC1CCS(=O)(=O)c2ccccc21)n1cc(C2CC2)nn1 (stereo partly drawn) [Compound 420] | 4.3 µM |
| CNC(=O)[C@@H]1C[C@@H](O)CN1C(=O)[C@@H](n1cc(CN2CCC(C(=O)OC)CC2)nn1)C(C)(C)C [Compound 1059] | 7.47 µM |
| CCc1onc(C)c1CNC(=O)[C@@H]1C[C@@H](O)CN1C(=O)[C@@H](n1cc(C2CC2)nn1)C(C)(C)C [Compound 405] | 3.18 µM |

Now take the following compound into account.
// sample CC(C)(C)[C@@H](C(=O)N1C[C@H](O)C[C@H]1C(=O)NC1CCN(c2ccc(Cl)c(Cl)c2)C1)n1cc(C2CC2)nn1 (stereo partly drawn) [Compound 463] , its IC50 was 4.86 µM

----------
target: VHL (Homo sapiens, UniProt P40337); construct: expressed in transfected cells; test: VHL HEK-293 BRET Assay (VHL NanoBRET Target Engagement Assay); assay type: cell-based; conditions: HEK 293 RT VHL-NanoLuc stable cells; read-out: IC50
pIC50: −log10 of the molar value.
Kindly return 1.0 if reported pIC50 is no lower than 5; return 0.0 if it is lower.

| COMPOUND | QUALITATIVE LABEL |
| --- | --- |
| CC[S+]([O-])C1CCCCC1NC(=O)[C@@H]1C[C@@H](O)CN1C(=O)[C@@H](n1cc(C2CC2)nn1)C(C)(C)C (stereo partly drawn) | 0.0 |
| CC(C)(C)[C@@H](C(=O)N1C[C@H](O)C[C@H]1C(=O)NCC1CCS(=O)(=O)c2ccccc21)n1cc(C2CC2)nn1 (stereo partly drawn) | 1.0 |
| CCC(CNC(=O)[C@@H]1C[C@@H](O)CN1C(=O)[C@@H](n1cc(C2CC2)nn1)C(C)(C)C)Oc1cccc(C(F)(F)F)c1 (stereo partly drawn) | 1.0 |
| CC(C)(C)[C@@H](C(=O)N1C[C@H](O)C[C@H]1C(=O)NCCC1(O)CN(C(c2ccccc2)c2ccccc2)C1)n1cc(C2CC2)nn1 | 1.0 |
| CC(C)(C)[C@@H](C(=O)N1C[C@H](O)C[C@H]1C(=O)NC(CO)c1ccc(Br)c(F)c1)n1cc(C2CC2)nn1 (stereo partly drawn) | 1.0 |

Please find the next compound below.
Problem: For this compound, is measured pIC50 5 or higher? CC(C)(C)[C@@H](C(=O)N1C[C@H](O)C[C@H]1C(=O)NC1CC12CCc1cc(Br)ccc12)n1cc(C2CC2)nn1 (stereo partly drawn)
Solution: 1.0
